# Tested on: Saccharomyces cerevisiae BY4741 SeMeCo community
# Assay protocol: z-score of subpopulation abundance vs DMSO median, subpopulation auxotrophic for LU; higher = larger share of this subpopulation than in DMSO controls
# Reported conditions: 10 µM; 24 h; SM minimal medium; subpopulation (auxotrophy): LU
Counter-ions that a name gives are not always drawn.
Given measured z-score of subpopulation abundance, output Y if it is greater than or equal to 0.07 and N if not.

Is it the case that CCC(C)C1OC2(CCC1C)CC1CC(CC=C(C)C(OC3CC(OC)C(OC4CC(OC)C(O)C(C)O4)C(C)O3)C(C)C=CC=C3COC4C(O)C(C)=CC(C(=O)O1)C34O)O2 (stereo not given) has z-score of subpopulation abundance reaching or exceeding 0.07?
N

Is it the case that `CO/N=C1\C[C@]2(C[C@@H]3C[C@@H](C/C=C(\C)C[C@@H](C)/C=C/C=C4\CO[C@@H]5[C@H](O)C(C)=C[C@@H](C(=O)O3)[C@]45O)O2)O[C@H](/C(C)=C/C(C)C)[C@H]1C` has z-score of subpopulation abundance reaching or exceeding 0.07?
N

Is it the case that CN(C)CCC=C1c2ccccc2C(C)(C)c2ccccc21 [Melitracen hydrochloride] has z-score of subpopulation abundance reaching or exceeding 0.07?
N

Is it the case that `CC(=O)OCC1=C(C(=O)O)N2C(=O)[C@@H](NC(=O)CSc3ccncc3)[C@H]2SC1` has z-score of subpopulation abundance reaching or exceeding 0.07?
Y

---

# Tested on: Saccharomyces cerevisiae BY4741 SeMeCo community
# Assay protocol: z-score of subpopulation abundance vs DMSO median, subpopulation auxotrophic for HL; higher = larger share of this subpopulation than in DMSO controls
# Reported conditions: 10 µM; 24 h; SM minimal medium; subpopulation (auxotrophy): HL
Where a name gives a salt, the structure may show the parent alone.
Given measured z-score of subpopulation abundance, output y if it is greater than or equal to 0.3 and n if not.

Previously resolved entries follow.
O=C1OCCN1/N=C/c1ccc([N+](=O)[O-])o1
y
CN(C)CCCN1c2ccccc2Sc2ccccc21 [Promazine hydrochloride]
n

Please find the next compound below.
Is it the case that CCCCNc1ccc(C(=O)OCCN(C)C)cc1 [Tetracaine HCl] has z-score of subpopulation abundance reaching or exceeding 0.3?
n

---

# Tested on: Saccharomyces cerevisiae BY4741 SeMeCo community
# Assay protocol: z-score of subpopulation abundance vs DMSO median, subpopulation auxotrophic for HM; higher = larger share of this subpopulation than in DMSO controls
# Reported conditions: 10 µM; 24 h; SM minimal medium; subpopulation (auxotrophy): HM
Structures can show the parent of a compound that is named as a salt.
Given measured z-score of subpopulation abundance, output Yes if it is greater than or equal to -0.8 and No if not.

C[n+]1ccccc1C=NO [Pralidoxime Iodide]
Yes

Is it the case that NC(=O)C(c1ccccc1)(c1ccccc1)[C@@H]1CCN(CCc2ccc3c(c2)CCO3)C1 [Darifenacin HBr] has z-score of subpopulation abundance reaching or exceeding -0.8?
Yes

Is it the case that CCn1cc(C(=O)O)c(=O)c2cc(F)c(N3CCNCC3)nc21 [Enoxacin] has z-score of subpopulation abundance reaching or exceeding -0.8?
No

Is it the case that CN(C)CCOc1ccc(/C(=C(/CCCl)c2ccccc2)c2ccccc2)cc1 [Toremifene Citrate] has z-score of subpopulation abundance reaching or exceeding -0.8?
Yes

---

# Test system: Saccharomyces cerevisiae BY4741 SeMeCo community
# Assay protocol: z-score of subpopulation abundance vs DMSO median, subpopulation auxotrophic for UM; higher = larger share of this subpopulation than in DMSO controls
# Reported conditions: 10 µM; 24 h; SM minimal medium; subpopulation (auxotrophy): UM
Reported z-score of subpopulation abundance values follow for various compounds
Write the number on its own, no unit after it.

OC1(c2ccc(Cl)c(C(F)(F)F)c2)CCN(CCCC(c2ccc(F)cc2)c2ccc(F)cc2)CC1
2.69
Nc1ccc(S(=O)(=O)Nc2ncccn2)cc1 [Sodium sulfadiazine]
-0.13
CC1(C)S[C@@H]2[C@H](NC(=O)C(c3ccccc3)S(=O)(=O)O)C(=O)N2[C@H]1C(=O)O (some centres undefined) [Sulbenicillin Sodium]
1.5
C[C@@H](O)[C@H]1C(=O)N2C(C(=O)O)=C(S[C@@H]3CN[C@H](CNS(N)(=O)=O)C3)[C@H](C)[C@H]12 [Doripenem Hydrate]
-0.42

# context switch: different compound, same z-score of subpopulation abundance
Consider the compound shown here: COc1cccc(-c2c(C)n(Cc3c(F)cccc3C(F)(F)F)c(=O)n(C[C@H](NCCCC(=O)O)c3ccccc3)c2=O)c1F [Elagolix Sodium] What is its recorded z-score of subpopulation abundance?
-0.27

---

# Test system: Saccharomyces cerevisiae BY4741 SeMeCo community
# Assay protocol: z-score of subpopulation abundance vs DMSO median, subpopulation auxotrophic for H; higher = larger share of this subpopulation than in DMSO controls
# Reported conditions: 10 µM; 24 h; SM minimal medium; subpopulation (auxotrophy): H
Where a name gives a salt, the structure may show the parent alone.
Lab note: class by z-score of subpopulation abundance, see class A: < -0.2; class B: ≥ -0.2 and < 0.5; class C: ≥ 0.5

CCOc1cc(N)c(Cl)cc1C(=O)NCC1CN(Cc2ccc(F)cc2)CCO1 (centres undefined) [Mosapride]
class B
CN1CCN(CC(=O)N2c3ccccc3C(=O)Nc3cccnc32)CC1 [Pirenzepine dihydrochloride]
class B
CC(C)c1c(C(=O)Nc2ccccc2)c(-c2ccccc2)c(-c2ccc(F)cc2)n1CC[C@@H](O)C[C@@H](O)CC(=O)O [Atorvastatin Calcium]
class C
CC1=C(C(=O)O)N2C(=O)[C@@H](NC(=O)[C@H](N)c3ccc(O)cc3)[C@H]2SC1 [Cefadroxil hydrate]
class B
CCN1CC(CCN2CCOCC2)C(c2ccccc2)(c2ccccc2)C1=O (centres undefined) [Doxapram HCl]
class A

Band for the recorded z-score of subpopulation abundance of C[N+]1(C)[C@@H]2C[C@@H](OC(=O)C(O)(c3cccs3)c3cccs3)C[C@H]1[C@@H]1O[C@@H]12 [Tiotropium Bromide hydrate] ?
class A

Band for the recorded z-score of subpopulation abundance of NS(=O)(=O)Cc1noc2ccccc12 [Zonisamide] ?
class B

Band for the recorded z-score of subpopulation abundance of CCN1CCCC1CNC(=O)c1cc(S(=O)(=O)CC)c(N)cc1OC (centres undefined) [Amisulpride] ?
class B

Band for the recorded z-score of subpopulation abundance of NCCNc1ccc(NCCN)c2c1C(=O)c1ccncc1C2=O [Pixantrone Maleate] ?
class C

---

# System: Saccharomyces cerevisiae BY4741 SeMeCo community
# Assay protocol: z-score of subpopulation abundance vs DMSO median, subpopulation auxotrophic for U; higher = larger share of this subpopulation than in DMSO controls
# Reported conditions: 10 µM; 24 h; SM minimal medium; subpopulation (auxotrophy): U
Structures can show the parent of a compound that is named as a salt.
Metric: z-score of subpopulation abundance
Write the number on its own, no unit after it.

Record excerpt, results attached:
CCCCc1oc2ccc(NS(C)(=O)=O)cc2c1C(=O)c1ccc(OCCCN(CCCC)CCCC)cc1 [Dronedarone HCl]
-0.45
CC[N+](CC)(CC)CC [Tetraethylammonium bromide]
1.19
CO/N=C(\C(=O)N[C@@H]1C(=O)N2C(C(=O)[O-])=C(C[N+]3(C)CCCC3)CS[C@H]12)c1csc(N)n1 [Cefepime Dihydrochloride Monohydrate]
-0.42
Cn1cc(C(=O)[C@@H]2CCc3[nH]cnc3C2)c2ccccc21 [Ramosetron Hydrochloride]
0.51
CNCc1cc(-c2ccccc2F)n(S(=O)(=O)c2cccnc2)c1 [Vonoprazan Fumarate (TAK-438)]
0.84
CCCOc1ccc2c(c1)CC[C@@H]1[C@@H]2CC[C@]2(C)[C@@H](OC)CC[C@@H]12
0.31

Consider the compound shown here: `CCCCCCCCCCCCCCCCOP(=O)([O-])OCC[N+](C)(C)C` What is its recorded z-score of subpopulation abundance?
-5.15

Consider the compound shown here: COc1cc(N)c(Cl)cc1C(=O)NC1CCN(CCCOc2ccc(F)cc2)CC1OC (configuration not stated) [Cisapride] What is its recorded z-score of subpopulation abundance?
-0.14

Consider the compound shown here: CCc1cc(C(N)=S)ccn1 [Ethionamide] What is its recorded z-score of subpopulation abundance?
-0.01

Consider the compound shown here: NC(=O)c1cn(Cc2c(F)cccc2F)nn1 [Rufinamide] What is its recorded z-score of subpopulation abundance?
-0.6

Consider the compound shown here: CCN1CC(CCN2CCOCC2)C(c2ccccc2)(c2ccccc2)C1=O (configuration not stated) [Doxapram HCl] What is its recorded z-score of subpopulation abundance?
0.42

---

Reported z-score of subpopulation abundance values follow for various molecules
# Test system: Saccharomyces cerevisiae BY4741 SeMeCo community
# Assay protocol: z-score of subpopulation abundance vs DMSO median, subpopulation auxotrophic for HU; higher = larger share of this subpopulation than in DMSO controls
# Reported conditions: 10 µM; 24 h; SM minimal medium; subpopulation (auxotrophy): HU
Structures can show the parent of a compound that is named as a salt.
Write the number on its own, no unit after it.

Record excerpt, results attached:
C/C=C\c1ccc(O)c(OC)c1
-0.46
CC[C@H](C)C[C@H](C)CCCCCCCCC(=O)N[C@H]1C[C@@H](O)[C@@H](NCCN)NC(=O)[C@@H]2[C@@H](O)CCN2C(=O)[C@H]([C@H](O)CCN)NC(=O)[C@H]([C@H](O)[C@@H](O)c2ccc(O)cc2)NC(=O)[C@@H]2C[C@@H](O)CN2C(=O)[C@H]([C@@H](C)O)NC1=O [Caspofungin Acetate]
8.05
CC(=O)Oc1ccccc1C(=O)O
-0.71
CC(C)C(=O)c1c(C(C)C)nn2ccccc12
0.99
CN1CCN(CCCN2c3ccccc3Sc3ccc(Cl)cc32)CC1 [Prochlorperazine dimaleate salt]
0.89
CCOC(=O)C1=C(C)NC(C)=C(C(=O)OC)C1c1cccc([N+](=O)[O-])c1 (centres undefined)
1.51
CCCOc1ccc(C(=O)OCCN(CC)CC)cc1N [Proparacaine HCl]
-0.31
C[C@@H]1[C@H](O)[C@@H](C)/C=C/C=C/C=C/C=C/C=C/C=C/C=C/[C@H](O[C@@H]2O[C@H](C)[C@@H](O)[C@H](N)[C@@H]2O)C[C@@H]2O[C@](O)(C[C@@H](O)C[C@@H](O)[C@H](O)CC[C@@H](O)C[C@@H](O)CC(=O)O[C@H]1C)C[C@H](O)[C@H]2C(=O)O
10.5

Consider the molecule shown here: Clc1ccc(C(Cn2ccnc2)OCc2csc3c(Cl)cccc23)c(Cl)c1 (centres undefined) [Sertaconazole nitrate] What is its recorded z-score of subpopulation abundance?
14.5

Consider the molecule shown here: CN1CCC(=C2c3ccccc3C=Cc3ccccc32)CC1 [Cyproheptadine hydrochloride] What is its recorded z-score of subpopulation abundance?
-0.56

Consider the molecule shown here: `CC(=O)N[C@H]1[C@H]([C@H](O)[C@H](O)CO)OC(C(=O)O)=C[C@@H]1NC(=N)N` What is its recorded z-score of subpopulation abundance?
-0.41

Consider the molecule shown here: Cc1cccc(C)c1OCC(C)N (centres undefined) [Mexiletine HCl] What is its recorded z-score of subpopulation abundance?
0.61
